Ref: PubChem BioAssay (NCI)

# assay-name: NCI Yeast Anticancer Drug Screen. Data for the mlh1 rad18 strain (AID 175)
# recorded-conditions: S. cerevisiae mlh1 rad18 strain growth inhibition; at 50.0 µM; stronger effect = higher value
Compounds without any hit were thinned out: in the full panel of roughly 79,000, 15% have a hit.
property-label: growth inhibition (%)

INSERT INTO results (compound, units_symbol, meas_value) VALUES
  ('C/C=C\COC(=O)C(C)OC(=O)OCC (centres undefined)', '%', 0.5),
  ('CCCCCCO[Si](OCCCCCC)(OCCCCCC)OCCCCCC', '%', -17.4),
  ('O=C1OCC/C1=C1/NC2CCCCC2NC1=O (centres undefined)', '%', -14.1),
  ('O=C(NCc1ccccc1)c1cc(Cl)ccc1O', '%', 5.35),
  ('O=c1cc(-c2cccc3ccccc23)[nH]c2ncccc12', '%', -29.5),
  ('CCOC(=O)C(CCc1ccc([N+](=O)[O-])cc1)(CCc1ccc([N+](=O)[O-])cc1)C(=O)OCC', '%', 6.15),
  ('N#CCc1n[nH]c(Cc2ccccc2)n1', '%', 12.4),
  ('O=C1CCCC1CC(CN1CCOCC1)Sc1nnnn1-c1ccccc1 (centres undefined)', '%', -45.8),
  ('CS(=O)(=O)OCCn1cnc2nc(NC(=O)c3ccccc3)[nH]c(=O)c21', '%', -24.6),
  ('CCN1N=CSC12C(=O)N(c1ccccc1)C(=O)N2c1ccccc1 (centres undefined)', '%', -38.6),
  ('COC(=O)NN(C(=O)OC)C12CCCC1N(C(=O)OC)N(C(=O)OC)c1c2ccc2ccccc12 (centres undefined)', '%', 6.75),
  ('O=C(Nc1ccc(F)c([N+](=O)[O-])c1)Nc1ccccc1C(F)(F)F', '%', 25.8),
  ('O=C(O)C1CCCCCC1', '%', 2),
  ('CCn1nc(C)c2c1C(=O)NCC(=O)N2', '%', -2.3);

* * *

# assay-name: NCI Yeast Anticancer Drug Screen. Data for the sgs1 mgt1 strain (AID 161);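 note: 0% = growth of cultures given vehicle only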
# recorded-conditions: S. cerevisiae sgs1 mgt1 strain, at 50.0 µM, stronger effect = higher value
# Method: Growth inhibition of yeast strains with defined genetic alterations is measured as a screen for potential anti-cancer activity. Selected strains with alterations in DNA damage repair or cell cycle control were exposed to compounds and growth inhibition was measured relative to vehicle treated controls. The strain used in this assay is sgs1 mgt1
The panel holds about 79,000 compounds, 15% with a hit somewhere; the sample as a whole holds those more often. Active and inactive are the calls of the source. Rule as the data show it: active = growth inhibition above about 70%; inactive = the rest.
property-label: growth inhibition

INSERT INTO results (molecule, meas_value) VALUES
  ('CCOC(=O)NCC(C)(C)N(C(=O)OCC)c1ccccc1', '-15.7% (inactive)'),
  ('CCCCC(CC)CO (stereo not drawn)', '-32.7% (inactive)'),
  ('CN(NC(=O)CCCl)C1=NCCCCN1', '-4.95% (inactive)');

* * *

# assay-name: NCI Yeast Anticancer Drug Screen. Data for the rad50 strain (AID 155);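 note: 0% = growth of vehicle-only cultures of the same strain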
# recorded-conditions: S. cerevisiae rad50 strain growth inhibition; at 50.0 µM; stronger effect = higher value
About 79,000 compounds went through this panel and 15% of them were active in at least one assay; those are over-represented in the sample as a whole. Activity calls are given as the source filed them. Rule as the data show it: active = growth inhibition above about 70%; inactive = the rest.
Below: a set of entries, each annotated with reported growth inhibition.
property-label: growth inhibition

INSERT INTO results (molecule, meas_value) VALUES
  ('CC(C#N)NCc1ccc(C(C)NC(C)C#N)cc1 (stereo not given)', '4.5% (inactive)'),
  ('OC(C/C(=N\Nc1ccccc1)c1ccc(Br)cc1)(C(F)(F)F)C(F)(F)F', '67.2% (inactive)'),
  ('O=C(O)c1c(Br)c(Br)c(Br)c(Br)c1C(=O)Nc1ccccc1F', '7% (inactive)'),
  ('Cn1nnc(CC[N+]2(C)CCOCC2)n1', '-3.35% (inactive)'),
  ('CC(=O)CSCc1ccccn1', '5.05% (inactive)'),
  ('CC(C)NCC(O)COc1c2ccccc2nc2ccccc12 (stereo not given)', '-8.65% (inactive)'),
  ('O=C(O)CCC12CCC(=O)C=C1NC(=O)CC2 (stereo not given)', '1.55% (inactive)'),
  ('CC1C2CCC3(CCC4C5(C)CCCC4(CN(CCO)C5)C3C2)C1O (stereo not given)', '2.1% (inactive)'),
  ('COc1cc(Br)c(CC2c3cc(OC)c(OC)cc3CCN2C)cc1OC (stereo not given)', '-17% (inactive)'),
  ('CC(=O)Nc1cc(F)c2c(c1F)Cc1cc(F)ccc1-2', '15.1% (inactive)');

* * *

Recorded growth inhibition values for a group of molecules are listed next.
# assay-name: NCI Yeast Anticancer Drug Screen. Data for the rad50 strain (AID 155);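 note: 0% = growth of vehicle-only cultures of the same strain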
# recorded-conditions: S. cerevisiae rad50 strain growth inhibition; at 50.0 µM; stronger effect = higher value
Compounds without any hit were thinned out: in the full panel of roughly 79,000, 15% have a hit.
property-label: growth inhibition (%)

INSERT INTO measurements (molecule, property_label, meas_value) VALUES
  ('Cc1cccc(NC(=O)C(Cl)Cl)n1', 'growth inhibition', -2.3),
  ('O=C(CCCCCCCCC(=O)NC1CCCCC1)NC1CCCCC1', 'growth inhibition', -13.2),
  ('COc1cc(C)nc2ccc(C(=O)c3ccccc3)cc12', 'growth inhibition', 31),
  ('CC1(C)OC(=O)C(=Cc2ccc(-c3ccccc3[N+](=O)[O-])o2)C(=O)O1', 'growth inhibition', 3.05),
  ('O=C(O)C1CCC1C(=O)O (centres undefined)', 'growth inhibition', -18.1),
  ('CSc1ccc(NC(=O)Nc2ccccc2F)cc1', 'growth inhibition', -7.65),
  ('NC(=O)Nc1nc(-c2ccccc2)no1', 'growth inhibition', -16.7),
  ('O=C([CH-]C(=O)C(F)(F)F)c1ccccc1.O=C([CH-]C(=O)C(F)(F)F)c1ccccc1.O=C([CH-]C(=O)C(F)(F)F)c1ccccc1.[Ru+3]', 'growth inhibition', -11.2),
  ('O=CNCC1(c2ccccc2)CCNCC1', 'growth inhibition', 2.25),
  ('CCCCCCCCCCCCOc1ccc(Br)cc1', 'growth inhibition', 11.4),
  ('C/C(=C1\SC(=S)N(C2OC(CO)C(O)C(O)C2O)C1=O)c1ccco1 (centres undefined)', 'growth inhibition', -14),
  ('C=C(C(=O)O)C1CC[C@@]2(C)CC(O)CC(=C)C2C1 (some centres undefined)', 'growth inhibition', 16.4),
  ('CCc1cc2c(c3c1CCCC3)CC1(Cc3ccc(C(=O)OC)cc3C1)C2 (centres undefined)', 'growth inhibition', 3.65),
  ('CCCC1(CCC)CNC(=O)NC1', 'growth inhibition', 0.45),
  ('N=C(N)c1ccc(C(=N)N)cc1', 'growth inhibition', -16.4),
  ('O=C1CCC(C(=O)O)N1 (centres undefined)', 'growth inhibition', -9.2),
  ('Cc1nc(Br)c([N+](=O)[O-])[nH]1', 'growth inhibition', 6.9),
  ('O=C1C(Br)=C(Br)C(=O)C2=C1C1c3ccccc3C2c2ccccc21', 'growth inhibition', 98.5),
  ('N#CCCC(CC#N)N1CCN(C(CC#N)CCC#N)CC1 (centres undefined)', 'growth inhibition', -33.5),
  ('CCCCCCCCCCCCCCCCS(=O)(=O)N/N=C/c1ccccc1O', 'growth inhibition', 25.9),
  ('N#Cc1ccccc1NC(=O)C(=O)C(C(=O)c1ccccc1-c1ccccc1)C1OC(=O)c2ccccc21 (centres undefined)', 'growth inhibition', 24.4),
  ('Cc1cc2c(=O)c3ccc(Cl)cc3[nH]c2c(C(N)=O)c1C', 'growth inhibition', 22.2),
  ('O=C(C[n+]1ccc2ccccc2c1)c1ccc(Br)cc1', 'growth inhibition', -17.1),
  ('O=C1CCC2=NCc3c(ccc4ccccc34)N12', 'growth inhibition', 4.7);

* * *

# assay-name: NCI Yeast Anticancer Drug Screen. Data for the rad50 strain (AID 155);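 note: 0% = growth of vehicle-only cultures of the same strain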
# recorded-conditions: S. cerevisiae rad50 strain growth inhibition; at 50.0 µM; stronger effect = higher value
This is part of a sample that, as a whole, favours compounds with a hit. Of some 79,000 tested, about 15% had one in any assay.
# growth inhibition values compiled below
property-label: growth inhibition (%)

INSERT INTO results (compound, units_symbol, meas_value) VALUES
  ('CCOC(=O)c1oc2ccc(OC)c3c2c1CCC3', '%', 2.8),
  ('Cc1nc(N)sc1N=Nc1ccc(Br)cc1Br', '%', 85.2),
  ('O=C(NCC1CC1)NC(=O)c1c(F)cccc1Cl', '%', -1.2),
  ('O=S(=O)(SSS(=O)(=O)c1ccc(Cl)c(Cl)c1)c1ccc(Cl)c(Cl)c1', '%', 7.8),
  ('Cc1ccc(SC(=O)Cc2ccc([N+](=O)[O-])cc2)cc1', '%', 96.6),
  ('CNC1C(O)C(OC2C(N)CC(N)C(OC3OC(CN)=CCC3N)C2O)OCC1(C)O (stereo not given)', '%', -17.3),
  ('O=C1NC2(c3ccccc3)CCCCC2O1 (stereo not given)', '%', -4.95),
  ('Cc1ccc(S(=O)(=O)NN=C2C(C)(C)C(=O)C2(C)C)cc1', '%', -1.5),
  ('COc1cc2c(cc1C(C)c1ccc(OCc3ccccc3)cc1)OCO2 (stereo not given)', '%', -1.3),
  ('CCn1c2ccccc2c2nnc(NCCCO)nc21', '%', -14.7),
  ('Cc1cc[c]([Sb]2([c]3ccc(C)cc3)([c]3ccc(C)cc3)[NH]c3cc(C(c4ccccc4)(c4ccccc4)c4ccccc4)cc(C(C)(C)C)c3[O]2)cc1', '%', -1.65),
  ('COC1OC2COC(c3ccccc3)OC2C2C1N2C(=S)SC (stereo not given)', '%', -4.05),
  ('CCCCCCCCCCCCCCCCCC(=O)Oc1c(C(C)(C)C)cc([N+](=O)[O-])c(C)c1[N+](=O)[O-]', '%', 98.2),
  ('CN(c1ccccc1)S(=O)(=O)c1cccc([N+](=O)[O-])c1', '%', -25.3),
  ('COc1ccc(-c2cc(-c3ccccc3)c(C#N)c(=O)[nH]2)cc1', '%', 22.9),
  ('Cc1ccc(C)c(NCc2ccccc2)c1', '%', 41.6),
  ('CCN(CC)CCn1[nH]c2c3ccc(=O)cc3sc3c(NCCN)ccc1c32', '%', 13.3),
  ('O=C1OC(=O)C2C3C=CC(C4C=C(C5CC5)C43)C12 (stereo not given)', '%', 9.8),
  ('CC(=O)OCCn1c2ccccc2nc2cc3c(cc21)c(Cl)c(=O)c1ccccc13', '%', 29.6),
  ('Cn1c(=O)c(C(c2ccccc2)c2c(O)c3ccccc3n(C)c2=O)c(O)c2ccccc21', '%', 12.1),
  ('COCCNC1CCC2(SCCS2)c2[nH]c3ccccc3c21 (stereo not given)', '%', -10.3),
  ('O=C1/C(=C/c2ccccc2)N=C2Sc3c(nc[nH]c3=O)N12', '%', 16.5),
  ('CON(C)c1nc(N(C)OC)nc(N(C)OC)n1', '%', -8.05),
  ('O=c1cnc2c(ccc3ccccc32)[nH]1', '%', -2.7),
  ('Cc1c(N)cc2c(c1N)C(C)(C)CC2(C)C', '%', 1.35),
  ('O=C(O)c1ccc[n+](Cc2ccccc2)c1', '%', 4.9),
  ('O=C1ON(c2ccccc2)C(c2ccc(OCc3ccccc3)cc2)N1c1ccccc1 (stereo not given)', '%', 42.6),
  ('O=c1[nH]c(=O)n(C2OC(COP(=O)(O)OP(=O)(O)OC3OC(CO)C(O)C(O)C3O)C(O)C2O)cc1F (stereo not given)', '%', 1.15),
  ('CCCCCCCCCCCC(=O)c1c(O)cccc1O', '%', -10.1),
  ('Cc1ccn2c(=O)c(CCBr)c(C)nc2c1', '%', 12.8);
